Listed molecules paired with reported pIC50
Target: JAK3 (Homo sapiens, UniProt P52333)
Construct: 5 μl of catalytic domain recombinant Kinase enzyme+Tyr peptide substrate (Invitrogen, CA)
Sequence (P52333 822-1111 limits assumed): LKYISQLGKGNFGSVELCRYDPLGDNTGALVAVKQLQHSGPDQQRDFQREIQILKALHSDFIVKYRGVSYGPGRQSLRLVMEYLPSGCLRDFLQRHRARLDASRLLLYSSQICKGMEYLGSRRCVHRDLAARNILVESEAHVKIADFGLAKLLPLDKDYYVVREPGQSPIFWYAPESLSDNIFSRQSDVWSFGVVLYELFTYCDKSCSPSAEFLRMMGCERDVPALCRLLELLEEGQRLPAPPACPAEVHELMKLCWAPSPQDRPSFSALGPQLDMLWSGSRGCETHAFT
Assay: Z'-LYTE kinase assay JAK3
pIC50: −log10 of the molar value.

COMPOUND STRUCTURE | REPORTED MEASUREMENT
NC(=O)c1cnc(Nc2ccc(C3CCN(C(=O)C4CCOCC4)CC3)cc2)cc1NCc1ccccc1F | 8.00 to 9.00

Recorded result, COC(=O)N1CCC[C@H](CNc2cc(Nc3ccc(OC)cc3)ncc2C(N)=O)C1 , pIC50: 6.00 to 7.00

get_value(item= CN(C)C(=O)c1ccc(Nc2cc(NCc3cccc4c3ccn4C)c(C(N)=O)cn2)cc1 , readout=pIC50) returns 8.00 to 9.00

Lab note: measured pIC50 of N#CCN1CCC(c2ccc(Nc3cc(NCc4cccc(F)c4F)c(C(N)=O)cn3)cc2)CC1 was 7.00 to 8.00
